Cited source: patent US9360486B2

System: Amb a 1-specific T cell lines (TCL)
Experiment: T cell epitope mapping of Amb a 1.3: proliferation (3H-thymidine uptake) of TCL stimulated with synthetic peptides
Type: cell-based, human
Details: TCL from 48 ragweed pollen-allergic patients; peptide 5 μg/ml; stimulation index > 5
% (positive patients SI > 5) strictly less than 6% = Satisfied. Otherwise Not satisfied.

Is % (positive patients SI > 5) of QIKKNVLARTGT (Amb a 1 fragment) [Peptide 99] strictly below 6%?
Not satisfied

Is % (positive patients SI > 5) of AEPGEAAIKLTS (Amb a 1 fragment) [Peptide 117] strictly below 6%?
Not satisfied

Is % (positive patients SI > 5) of KGMLATVAFNMF (Amb a 1 fragment) [Peptide 78] strictly below 6%?
Not satisfied

Is % (positive patients SI > 5) of RMPRCRFGFFQV (Amb a 1 fragment) [Peptide 84] strictly below 6%?
Satisfied

Is % (positive patients SI > 5) of LLENGAIFVTSG (Amb a 1 fragment) [Peptide 108] strictly below 6%?
Not satisfied

Is % (positive patients SI > 5) of GVGEILPSVNET (Amb a 1 fragment) [Peptide 2] strictly below 6%?
Satisfied

Is % (positive patients SI > 5) of WENNRQALADCA (Amb a 1 fragment) [Peptide 13] strictly below 6%?
Satisfied

Is % (positive patients SI > 5) of YTVTSNLDDDVA (Amb a 1 fragment) [Peptide 22] strictly below 6%?
Not satisfied

Is % (positive patients SI > 5) of CKFTQQSKAILL (Amb a 1 fragment) [Peptide 71] strictly below 6%?
Satisfied

Is % (positive patients SI > 5) of GRGVKVEIINGG (Amb a 1 fragment) [Peptide 40] strictly below 6%?
Not satisfied

Is % (positive patients SI > 5) of IFVTSGSDPVLT (Amb a 1 fragment) [Peptide 110] strictly below 6%?
Not satisfied

----------
Test system: Amb a 1-specific T cell lines (TCL)
Assay: T cell epitope mapping of Amb a 1.3: proliferation (3H-thymidine uptake) of TCL stimulated with synthetic peptides
Format: cell-based, human
Settings: TCL from 48 ragweed pollen-allergic patients; peptide 5 μg/ml; stimulation index > 5
experimental-readout: % (positive patients SI > 5) (%)
Number only, in %; omit the unit.

Would you mind telling me what % (positive patients SI > 5) value was observed for QELVVNSDKTID (Amb a 1 fragment) [Peptide 36] ?
25.0

Would you mind telling me what % (positive patients SI > 5) value was observed for SSAPTILCQGNR (Amb a 1 fragment) [Peptide 93] ?
8.3

Would you mind telling me what % (positive patients SI > 5) value was observed for FLAPDDQIKKNV (Amb a 1 fragment) [Peptide 97] ?
8.3

Would you mind telling me what % (positive patients SI > 5) value was observed for PILRQASDGDTI (Amb a 1 fragment) [Peptide 55] ?
2.1

Would you mind telling me what % (positive patients SI > 5) value was observed for RQASDGDTINVA (Amb a 1 fragment) [Peptide 56] ?
2.1

Would you mind telling me what % (positive patients SI > 5) value was observed for IIFKNDMVINLN (Amb a 1 fragment) [Peptide 32] ?
2.1

----------
Answer each item with its documented % (positive patients SI > 5).
System: Amb a 1-specific T cell lines (TCL)
Assay: T cell epitope mapping of Amb a 1.3: proliferation (3H-thymidine uptake) of TCL stimulated with synthetic peptides
Format: cell-based, human
Settings: TCL from 48 ragweed pollen-allergic patients; peptide 5 μg/ml; stimulation index > 5
Number only, in %; omit the unit.

Would you mind telling me what % (positive patients SI > 5) value was observed for FDGLVDVTLGST (Amb a 1 fragment) [Peptide 65] ?
2.1

Would you mind telling me what % (positive patients SI > 5) value was observed for VAFNMFTDNVDQ (Amb a 1 fragment) [Peptide 80] ?
12.5

Would you mind telling me what % (positive patients SI > 5) value was observed for VKVLPGGMIKSN (Amb a 1 fragment) [Peptide 50] ?
8.3

Would you mind telling me what % (positive patients SI > 5) value was observed for KNIIIHNINIHD (Amb a 1 fragment) [Peptide 46] ?
16.7

Would you mind telling me what % (positive patients SI > 5) value was observed for NMFTDNVDQRMP (Amb a 1 fragment) [Peptide 81] ?
12.5
